Test system: MOLT-4
Experiment: NCI tumour cell line growth inhibition, 48 h
Active and inactive are the calls of the source. Rule as the data show it: active = GI50 up to about 1.1 µM and inactive = higher.
Classes used: active, inactive

1. O=C1C=CC(=O)c2c1cc1ccccc1c2O: active
2. Cc1ccc(C2(O)c3ccccc3C(=O)N(C)C2(O)c2ccc(C)cc2)cc1 (stereo unspecified): inactive
3. CC(C)N(C(=O)C12C3C4C1C1C2C3C41C(N)=O)C(C)C (stereo unspecified): inactive
4. Cc1c(Cl)cc(C(C)(C)C)c(O)c1Cc1c(C)c(Cl)cc(C(C)(C)C)c1O: active
5. O=C1c2ccccc2C(=O)c2c(NC3CCCCC3)ccc(Nc3ccc(S(=O)(=O)O)cc3)c21: inactive
6. CC(C)CNc1nc2ncnc(N)c2[nH]1: inactive
7. Cn1c(=O)c2nc3sc4c(n3c2n(C)c1=O)C(=O)c1ccccc1C4=O: inactive
8. COC(=O)C(C(=O)C(=O)Nc1nc2ccc([N+](=O)[O-])cc2s1)c1nc2ccc(Cl)cc2nc1O (stereo unspecified): inactive
9. c1ccc(C2N3CCCCC3[C@@H]3c4[nH]c5ccccc5c4CCN23)cc1 (stereo partly specified): inactive
10. FC(F)(F)c1ccc(/N=N/N2CCCC2)cc1: inactive
11. NCCCC(N/C=C1/N=C(c2ccccc2)OC1=O)C(=O)O (stereo unspecified): inactive
12. COc1ccc(/C=C/c2cnc3ccccc3n2)cc1OC: inactive
13. CCCCCCCCCCCCn1[nH]c(C)c(C(=S)SCCCCCCCC)c1=O: inactive
14. COc1nc2c(N3CCCC3)nc(N3CCNCC3)nc2nc1NCc1ccccc1: inactive
15. CC(C)(C)c1cc(C(=O)Nc2cc(Br)c(Br)cc2S(N)(=O)=O)cc(C(C)(C)C)c1O: inactive
16. CCOC(=O)c1ccc(C(=O)OCC)n1-c1cc2cc(c1)CSCc1cc(cc(-n3c(C(=O)OCC)ccc3C(=O)OCC)c1)CSC2: inactive
17. O=C(CCCN1CCC2(CC1)CC(=O)N(N1CCCCCC1)C2=O)c1ccc(F)cc1: inactive
18. CN1CC[C@]2(C)c3cc(O)ccc3CC3CCCC1C32C (stereo partly specified): inactive
19. Cc1ccc(C(=O)/C=C(\O)C(=O)NN=C(c2ccccc2)c2ccccc2)cc1: inactive
20. Cc1ccc(C)c2c1NC(=O)/C2=N\Nc1ccccc1[N+](=O)[O-]: inactive
21. COc1ccc2nc3cc(Cl)ccc3c(NCCCCCC(=O)NC(COc3ccc4ccc5cccnc5c4n3)COc3ccc4ccc5cccnc5c4n3)c2c1: active
